Target: Flt3 (D835Y) (h) (Homo sapiens, UniProt P36888, D835Y)
Sequence (P36888 27-993 D835Y): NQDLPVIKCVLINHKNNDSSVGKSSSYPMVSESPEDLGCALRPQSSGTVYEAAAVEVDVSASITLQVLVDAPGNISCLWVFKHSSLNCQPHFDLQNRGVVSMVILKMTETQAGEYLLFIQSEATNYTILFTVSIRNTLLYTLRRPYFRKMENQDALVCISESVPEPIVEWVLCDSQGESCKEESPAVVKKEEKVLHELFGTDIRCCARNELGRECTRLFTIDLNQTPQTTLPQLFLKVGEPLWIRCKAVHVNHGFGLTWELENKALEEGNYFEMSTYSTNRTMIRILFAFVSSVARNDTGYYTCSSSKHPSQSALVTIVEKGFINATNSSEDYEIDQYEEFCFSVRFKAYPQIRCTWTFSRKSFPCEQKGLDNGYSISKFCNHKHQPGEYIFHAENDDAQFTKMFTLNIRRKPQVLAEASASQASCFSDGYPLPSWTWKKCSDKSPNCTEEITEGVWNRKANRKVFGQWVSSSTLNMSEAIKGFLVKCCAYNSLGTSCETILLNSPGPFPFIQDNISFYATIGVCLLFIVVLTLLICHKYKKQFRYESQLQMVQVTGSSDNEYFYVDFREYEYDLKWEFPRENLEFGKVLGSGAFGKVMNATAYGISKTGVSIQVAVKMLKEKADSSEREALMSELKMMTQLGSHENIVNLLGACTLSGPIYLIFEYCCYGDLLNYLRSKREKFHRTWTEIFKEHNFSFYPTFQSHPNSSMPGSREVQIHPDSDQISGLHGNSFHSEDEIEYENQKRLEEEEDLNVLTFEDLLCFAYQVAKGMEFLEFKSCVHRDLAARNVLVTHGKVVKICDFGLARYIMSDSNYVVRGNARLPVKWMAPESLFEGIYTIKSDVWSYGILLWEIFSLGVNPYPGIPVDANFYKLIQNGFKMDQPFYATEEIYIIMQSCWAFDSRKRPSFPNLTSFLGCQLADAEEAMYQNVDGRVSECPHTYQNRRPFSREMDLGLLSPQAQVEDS
Test: Mutant kinase IC50 screen
Assay type: biochemical
Procedure: IC50 values for MP470.HCl were determined for four mutant c-Kit kinases, one mutant Flt3 kinase, and two mutant PDGFRα kinases.
Quantity: IC50
Mention the unit after the number when you answer.

Check the records and state IC50 for Cl.S=C(NCc1ccc2c(c1)OCO2)N1CCN(c2ncnc3c2oc2ccccc23)CC1 [MP470.HCl]
8.05 µM
